These data points were gathered from the METLIN SMRT retention time set (Domingo-Almenara et al. 2019).

Assay: gradient 5% acetonitrile 3 min, to 50% in 2 min, to 85% in 15 min, held 3 min, 100 µL/min
Settings: column: Zorbax Extend-C18 2.1 x 50 mm; eluents: water / acetonitrile, 0.1% formic acid
Assignment: determine reported RP-LC retention time for the given molecules.
Numeric only. Scale: s

Q) Data request, read-out RP-LC retention time, for C=CCCC1(C2=CCCCC2)C(=O)NC(=O)NC1=O
A) 804

Q) Data request, read-out RP-LC retention time, for Cc1nc(-c2csc(S(=O)(=O)N3CCCC(C(=O)NCc4ccccc4Cl)C3)c2)no1 (stereo not given)
A) 940

Q) Data request, read-out RP-LC retention time, for Cc1ccc2[nH]cc(CCNC(=O)c3c(-c4ccccn4)noc3C)c2c1
A) 964

Q) Data request, read-out RP-LC retention time, for O=C(c1cccc(Cl)c1)N1CCN(c2cc(-c3ccccc3)[nH]n2)CC1
A) 763

Q) Data request, read-out RP-LC retention time, for Cc1ccc(-c2nnc(-c3ccc(Cl)c(S(=O)(=O)N(C)C)c3)o2)cc1
A) 1040

* * *

Assay: gradient 5% acetonitrile 3 min, to 50% in 2 min, to 85% in 15 min, held 3 min, 100 µL/min
Details: column: Zorbax Extend-C18 2.1 x 50 mm; eluents: water / acetonitrile, 0.1% formic acid
metric: RP-LC retention time (s)
Numeric only. Scale: s

Q) Data request, read-out RP-LC retention time, for COc1cc([C@@H]2c3cc4c(cc3[C@H](O)[C@@H](CO)[C@@H]2C(=O)NCCc2ccccc2)OCO4)cc(OC)c1OC
A) 745

Q) Data request, read-out RP-LC retention time, for CCn1c(=O)sc2cc(S(=O)(=O)N3CCC(C(=O)NCC(C)c4ccccc4)CC3)ccc21 (stereo not drawn)
A) 929

Q) Data request, read-out RP-LC retention time, for Cc1ccc(-c2nnc(Cc3nc(-c4ccncc4)no3)o2)cc1F
A) 814

Q) Data request, read-out RP-LC retention time, for Cc1cc(OC(C)C(=O)N[C@H](C(=O)O)c2ccccc2)c2c3c(c(=O)oc2c1)CCC3 (stereo partly drawn)
A) 843

Q) Data request, read-out RP-LC retention time, for CCc1cccc(NC(=O)Cn2ncc3c(N4CCN(c5ccccn5)CC4)ncnc32)c1
A) 655

Q) Data request, read-out RP-LC retention time, for O=C(CNC(=O)c1ccccn1)Nc1nc2ccccc2[nH]1
A) 601

Q) Data request, read-out RP-LC retention time, for CCn1ccc2cc(S(=O)(=O)N3CCC(C(=O)NCC4CCCO4)CC3)ccc21 (stereo not drawn)
A) 771

Q) Data request, read-out RP-LC retention time, for CCOc1ccccc1C1C(C#N)=C(N)Oc2cc(C)n(CCN(C)C)c(=O)c21 (stereo not drawn)
A) 597

Q) Data request, read-out RP-LC retention time, for CC1=C(c2ccccc2)S(=O)(=O)N=C1N1CCCN(C(=O)Nc2ccccc2)CC1
A) 669

Q) Data request, read-out RP-LC retention time, for Cc1nn2c(CNS(=O)(=O)c3ccc(F)cc3F)c(-c3ccccc3)nc2s1
A) 867

Q) Data request, read-out RP-LC retention time, for COc1ccc(OC)c(CNC(=O)C2CCN(S(=O)(=O)c3ccc4c(c3)NC(=O)CO4)CC2)c1
A) 721

Q) Data request, read-out RP-LC retention time, for Cc1nnc(NC(=O)c2ccccc2OCc2nc(-c3ccccc3)no2)s1
A) 953

Q) Data request, read-out RP-LC retention time, for COc1cccc2c(C)nc(NC3=NCN(Cc4ccc5c(c4)OCO5)CN3)nc12
A) 700

Q) Data request, read-out RP-LC retention time, for COc1cc(OC)c(NC(=O)c2cc3c(=O)n(CC(C)C)ccc3n2C)cc1Cl
A) 924

Q) Data request, read-out RP-LC retention time, for Cc1cccc(-c2noc(CN3C(=O)C(C)Oc4ccccc43)n2)c1 (stereo not drawn)
A) 1110

Q) Data request, read-out RP-LC retention time, for CC(C)NC(=O)c1ccc(Nc2c(-c3ccccc3)nc3cnccn23)cc1
A) 702

Q) Data request, read-out RP-LC retention time, for Cc1nc(N2CCN(c3ncccn3)CC2)nc2c1C(=O)CC(c1ccccc1O)C2 (stereo not drawn)
A) 969

Q) Data request, read-out RP-LC retention time, for COc1cc(C(C)c2cc3c(cc2OCCO)OCO3)cc(OC)c1OC (stereo not drawn)
A) 798

* * *

Test: gradient 5% acetonitrile 3 min, to 50% in 2 min, to 85% in 15 min, held 3 min, 100 µL/min
Conditions: column: Zorbax Extend-C18 2.1 x 50 mm; eluents: water / acetonitrile, 0.1% formic acid
Assignment: determine reported RP-LC retention time for the given compounds.
Numeric only. Scale: s

Q) Data request, read-out RP-LC retention time, for CCC(c1cccs1)N1C(=O)[C@H]2CN(S(=O)(=O)c3ccccc3Cl)C[C@H]2C1=O (some centres undefined)
A) 1000

Q) Data request, read-out RP-LC retention time, for Cc1ccc(Cl)cc1N1C(=O)CN(S(C)(=O)=O)CC1(C)C(=O)NCc1ccc(F)cc1 (centres undefined)
A) 814

Q) Data request, read-out RP-LC retention time, for O=[n+]1c2c(n([O-])c3ccccc31)-c1cccc3cccc-2c13
A) 767

Q) Data request, read-out RP-LC retention time, for Cc1nc(-c2cnccn2)n(CC(=O)Nc2cccc(C#N)c2)c(=O)c1C
A) 711

Q) Data request, read-out RP-LC retention time, for CCN1CCN(c2ncc3c(n2)CCN(Cc2ccc(Br)s2)C3)CC1
A) 568

Q) Data request, read-out RP-LC retention time, for CN1C(=O)c2cccn2CC1CNS(=O)(=O)c1cccc2nsnc12 (centres undefined)
A) 680

Q) Data request, read-out RP-LC retention time, for CCCNC(=O)C1CCN(c2ccc(SCC(=O)NCc3ccc(F)cc3)nn2)CC1
A) 667

Q) Data request, read-out RP-LC retention time, for O=C(Nc1cccc(-c2cn3cccnc3n2)c1)c1ccc(Cl)cc1
A) 739

Q) Data request, read-out RP-LC retention time, for CCN(CC)S(=O)(=O)c1ccc2c(c1)cc(C(=O)NCCc1c[nH]c3ccc(Cl)cc13)n2C
A) 1060

Q) Data request, read-out RP-LC retention time, for COCCCNC(=O)C1CC(=O)N(c2n[nH]c3cccc(F)c23)C1 (centres undefined)
A) 638

Q) Data request, read-out RP-LC retention time, for CCN(CC)CCN1C(=O)c2ccccc2NC1c1ccc(F)cc1 (centres undefined)
A) 641

Q) Data request, read-out RP-LC retention time, for O=C(NCc1cccc(C(F)(F)F)c1)C1(CCO)CCN(Cc2ccccc2)C1 (centres undefined)
A) 680

Q) Data request, read-out RP-LC retention time, for CN(C(=O)Cc1ccc(Cl)c(Cl)c1)C(CN1CCCC1)c1cccc(OCC(=O)O)c1 (centres undefined)
A) 770

Q) Data request, read-out RP-LC retention time, for O=C(Nc1ccc(N2CCOCC2)cc1)C1CCCN(c2ncc(-c3ccc(F)cc3)cn2)C1 (centres undefined)
A) 951

Q) Data request, read-out RP-LC retention time, for O=C(Nc1ccc(F)cc1)C1CCCN(C(=O)c2ccc(F)c(F)c2)C1 (centres undefined)
A) 860

Q) Data request, read-out RP-LC retention time, for Cc1cccc(CNC(=O)Cn2c(C)cc(-c3nnc(C4CCC4)o3)c2C)c1
A) 883

Q) Data request, read-out RP-LC retention time, for Nc1sc(SCC(=O)NCc2ccc(F)cc2)nc1-c1ccccc1
A) 796

Q) Data request, read-out RP-LC retention time, for CCCN1C(=O)CN(S(=O)(=O)c2ccccc2)CC1(C)C(=O)NCc1ccc(C)cc1 (centres undefined)
A) 898

Q) Data request, read-out RP-LC retention time, for CCC(CO)NCc1ccc(-c2ccc(Cl)cc2Cl)o1 (centres undefined)
A) 692

* * *

Experiment: gradient 5% acetonitrile 3 min, to 50% in 2 min, to 85% in 15 min, held 3 min, 100 µL/min
Conditions: column: Zorbax Extend-C18 2.1 x 50 mm; eluents: water / acetonitrile, 0.1% formic acid
metric: RP-LC retention time

Q) Data request, read-out RP-LC retention time, for Cc1ccc(C)c(CNS(=O)(=O)c2cc(-c3[nH]ncc3C(=O)N3CCCC3)oc2C)c1
A) 835 s

Q) Data request, read-out RP-LC retention time, for C=CCN1C(=O)COc2ccc(-c3nc(NC(=O)C(C)(C)C)sc3C)cc21
A) 1010 s

Q) Data request, read-out RP-LC retention time, for COc1ccc(-c2nnc(N3CCC(C(=O)NC4CCCCC4)CC3)o2)cc1
A) 811 s

Q) Data request, read-out RP-LC retention time, for CCCN1C(=O)c2cc(S(=O)(=O)NCc3ccccc3F)ccc2Oc2cccnc21
A) 1030 s

Q) Data request, read-out RP-LC retention time, for CCn1cc(CCN2CCN(S(=O)(=O)c3cccs3)CC2)c2cccnc21
A) 962 s

Q) Data request, read-out RP-LC retention time, for CC(C)CN1CCN(C(=O)CCC2CCCN(c3cc(NC4CC4)ncn3)C2)CC1 (centres undefined)
A) 547 s

Q) Data request, read-out RP-LC retention time, for COc1ccc(NC(=O)Cc2c(C)nn(-c3nc(-c4ccc(Cl)cc4)cs3)c2C)cc1
A) 1210 s

Q) Data request, read-out RP-LC retention time, for CCOc1ccccc1NC(=O)Cn1nc(C(=O)N2CCCC2)c2ccccc21
A) 917 s

Q) Data request, read-out RP-LC retention time, for CC1=C(c2ccccc2)S(=O)(=O)N=C1N1CCCN(C(=O)Nc2cccc(C#N)c2)CC1
A) 814 s
